System: ACHN renal
test.method.notes: NCI tumour cell line growth inhibition, 48 h; in the data active means GI50 below about 0.43 µM; inactive means the rest
Classes used: active, inactive

{"columns": ["compound", "class.label"],
 "data": [
  ["COc1cc(C)ccc1C(=O)c1ccc(C)cc1OC", "inactive"],
  ["Nc1nc2ccc(-c3nc4ccc5[nH]ncc5c4c4c3CCC4)cc2s1", "active"],
  ["CCCN1C(=O)NC(=O)C(CC)(N2C(=O)c3c(F)c(F)c(F)c(F)c3C2=O)C1=O (stereo unspecified)", "inactive"],
  ["O=S(=O)(Nc1ccc(Br)cc1)c1ccc(-c2cnc(C3CC3)o2)cc1", "inactive"],
  ["COc1ccc2c(c1)C(=O)/C(=C/c1cccc(OCC(=O)c3ccccc3)c1)CC2", "inactive"],
  ["Nc1ncn([C@@H]2S[C@H](CO)[C@@H](O)[C@@H]2F)c(=O)n1", "active"]
]}

* * *

System: U251 CNS
test.method.notes: NCI tumour cell line growth inhibition, 48 h

{"columns": ["compound", "TGI"],
 "data": [
  ["c1ccc(-c2csc3c4ccccc4c4ccccc4[n+]23)cc1", "13.8 µM"],
  ["CCNCCNC(=O)c1ccc(I)cc1", "> 100 µM"],
  ["O=S1(=O)c2ccccc2Oc2ccc(C(/C=N/O)=N/O)cc21", "> 100 µM"],
  ["COc1ccc2c(c1)C(=O)/C(=C/c1cccc(OCC(=O)c3ccccc3)c1)CC2", "> 100 µM"],
  ["COc1ccc(-c2noc(C(=O)O)c2-c2cc(OC)c(OC)c(OC)c2)cc1", "> 100 µM"],
  ["CC1=NNC(=O)C1C1C(=O)NN=C(c2c[nH]c3ccccc23)C1Br (centres undefined)", "> 100 µM"],
  ["COc1ccc([C@H]2[C@H]3COC(=O)[C@H]3C(C#N)=C3Sc4ccccc4N32)cc1", "> 100 µM"],
  ["c1ccc(C2ONC3=NCCN32)cc1 (centres undefined)", "> 100 µM"],
  ["CC(C)=CCN1c2ccccc2NC(=O)CC1C (centres undefined)", "> 100 µM"],
  ["COC(=O)C1=C(O)C(C(=O)OC)C2CC(=O)CC1C2(C)C (centres undefined)", "> 100 µM"],
  ["O=C(c1ccc2ccccc2c1)c1c(C(F)(F)F)n([O-])c2ccc(C(F)(F)F)cc2[n+]1=O", "0.742 µM"],
  ["C#CCNC(CSSCC(N)C(=O)O)C(=O)O (centres undefined)", "> 100 µM"],
  ["CN(C)CCNc1ccc2c(=O)n(CCN(C)C)c(=O)n3c4ccc(O)cc4c(=O)c1c23", "0.439 µM"],
  ["N#CC(C#N)=C/C=C(\\Cl)c1ccc(Cl)cc1", "> 43.7 µM"],
  ["C=CCn1c(=O)c(C)cn(COCCO)c1=O", "> 100 µM"],
  ["Cc1nc(C(N)=O)c(N)n1CCN1CCN(C(=O)CCCCCCCCCCNC2N=CNc3nc[nH]c32)CC1 (centres undefined)", "> 100 µM"],
  ["O=C1C=CC(=O)c2c1ccc1c3ccccc3n(Cc3ccc([N+](=O)[O-])cc3)c21", "> 100 µM"],
  ["CC(=O)O[C@H]1CC(C)(C)C(=C=C/C(C)=C/C=C/C=C/C=C(C)/C=C2C=C(/C=C/[C@@]34O[C@]3(C)C[C@@H](O)CC4(C)C)C(=O)O/2)[C@](C)(O)C1", "> 100 µM"],
  ["Cc1ccc(S(=O)(=O)NC(=O)Nc2nnc(S(N)(=O)=O)s2)cc1", "> 100 µM"],
  ["CC(=O)Nc1ccc2c(C)c3c(nc2n1)[nH]c1ccccc13", "> 100 µM"],
  ["CCOc1ccccc1CCN=C1NC(=O)/C(=C/c2ccc3ncccc3c2)S1", "> 25 µM"],
  ["Cc1ccc(Nc2nc3[nH]ccc3c(=O)[nH]2)cc1", "> 100 µM"],
  ["Cc1ccc(C(=N)c2ccccc2Cc2cccc3ccccc23)c2ccccc12", "> 100 µM"],
  ["Cc1cc([NH-])c([NH-])cc1C.[Cl][Pt+2][Cl]", "17 µM"],
  ["C=CCc1c(Cl)nc(Cl)nc1Cl", "1.74 µM"],
  ["COC1=NCc2ccccc2-c2ccccc21", "> 100 µM"],
  ["CN1CCC(CNc2cc(C3(C(=O)Nc4cc(C(=O)Nc5ccc(Cl)c(C(F)(F)F)c5)ccc4F)CC3)ncn2)CC1", "3.62 µM"],
  ["C/C(CC(O)(C(F)(F)F)C(F)(F)F)=N\\NC(N)=O", "> 10 µM"],
  ["COC(=O)C1(NC(=O)C(CC(=O)OCc2ccccc2)NC(=O)OCc2ccccc2)CCCCCC1 (centres undefined)", "> 100 µM"],
  ["O=C(Oc1cccnc1)c1cccnc1Nc1ccnc(C(F)(F)F)c1", "47.3 µM"],
  ["CC(C)/C(Cl)=N/OC(=O)Nc1ccc(Br)cc1", "37.3 µM"],
  ["Cc1ccc2nc(SCC(=O)N=Nc3c(O)[nH]c4ccccc34)n(-c3ccccc3)c(=O)c2c1", "24.8 µM"],
  ["C[N+](C)(C)CCC(=O)CC[N+](C)(C)C", "> 100 µM"],
  ["Cc1cc(C)nc(NS(=O)(=O)c2ccc(NC(=O)c3c4ccccc4nc4ccccc34)cc2)n1", "> 100 µM"],
  ["c1ccc(-c2nc(-c3ccccn3)nc(-c3ccccn3)n2)nc1", "> 100 µM"],
  ["O=c1cc(-c2cccs2)[nH]c2cc3c(cc12)OCO3", "> 60.2 µM"],
  ["CC(=O)OCc1c2ccccc2c(C)c2c1cc(F)c1ccccc12", "58.8 µM"],
  ["Cn1c(=O)c2c(nc3n(CC(O)CCl)c(=O)ccn23)n(C)c1=O (centres undefined)", "> 100 µM"],
  ["O=C1C[C@H]2CCCN2[C@@H](c2ccccc2)C1", "> 100 µM"],
  ["O=c1[nH]cc(NCCCl)c(=O)[nH]1", "> 100 µM"],
  ["CC1=C(C(=O)Nc2ccccc2C)C(c2ccc(Cl)cc2)C(C(=O)Nc2ccccc2C)=C(C)N1", "> 100 µM"],
  ["c1ccc(/C(=N/Nc2nc3ccccc3s2)C2CCCCC2)nc1", "35.9 µM"],
  ["O=C(N/N=C/c1ccccc1O)N/N=C/c1ccccc1O", "> 100 µM"],
  ["S=C1c2ccc(Cl)cc2-n2cnnc2C2CSCN12 (centres undefined)", "> 100 µM"]
]}

* * *

Recorded TGI values for a group of compounds are listed next.
Tested on: HCC-2998 colon
test.method.notes: NCI tumour cell line growth inhibition, 48 h

{"columns": ["compound", "TGI"],
 "data": [
  ["C=CCn1c(=O)c(C)cn(COCCO)c1=O", "> 100 µM"],
  ["Cc1cc([NH-])c([NH-])cc1C.[Cl][Pt+2][Cl]", "99.1 µM"],
  ["CCc1c(C#N)c(=O)[nH]c(=O)n1CCN1CCN(C(=O)NCCCCCCNC(=O)N2CCN(CCn3c(CC)c(C#N)c(=O)[nH]c3=O)CC2)CC1", "> 100 µM"],
  ["CN(C)CCNC(=O)Cn1ccc(=O)c2cc([N+](=O)[O-])ccc21", "> 100 µM"],
  ["O=c1[nH]/c(=C/c2ccc(OCc3ccccc3)cn2)c(=O)[nH]/c1=C/c1ccccc1", "0.521 µM"],
  ["O=C(NCCCOC(=O)CCCCCCCCC(=O)OCCCNC(=O)NC(=O)c1c[nH]c(=O)[nH]c1=O)NC(=O)c1c[nH]c(=O)[nH]c1=O", "> 100 µM"],
  ["CCN(CCCOc1ccccc1)CCN(CC)CCCOc1ccccc1", "48.4 µM"],
  ["COC(=O)[C@H]1C=NN[C@@H]1C(=O)N1[C@H]2CC3CC[C@@]2(CS1(=O)=O)C3(C)C", "> 100 µM"],
  ["c1ccc(-c2csc3c4ccccc4c4ccccc4[n+]23)cc1", "13 µM"],
  ["COC(=O)/C(=N\\NC(C)(C)C)C(C(=O)OC)C(=O)C(=O)Nc1cc(Cl)ccc1Cl (stereo not drawn)", "> 100 µM"],
  ["N=C1C(=N)c2ccccc2-c2ccccc21.[Cl-].[Ru+2].c1ccc(-c2ccccn2)nc1.c1ccc(-c2ccccn2)nc1", "> 100 µM"],
  ["O=C1c2cccc([N+](=O)[O-])c2C(=O)N1Cc1ccccc1", "> 100 µM"],
  ["COC(=O)C1=CO[C@@H](OC2CC(CO)C(O)C(O)C2O)[C@@H]2[C@@H](C)[C@@H](OC(=O)/C=C/c3ccccc3)[C@@H](O)[C@H]12 (stereo partly drawn) (tested in a mixture with another compound)", "> 100 µM"],
  ["CC(=O)Nc1ccc2c(C)c3c(nc2n1)[nH]c1ccccc13", "76.1 µM"],
  ["COc1ccc([C@H]2[C@H]3COC(=O)[C@H]3C(C#N)=C3Sc4ccccc4N32)cc1", "> 100 µM"],
  ["O=C1CC(CC(=O)C2CCCCC2=O)C(=O)N1 (stereo not drawn)", "> 100 µM"],
  ["Cc1ccc2nc(SCC(=O)N=Nc3c(O)[nH]c4ccccc34)n(-c3ccccc3)c(=O)c2c1", "28.6 µM"],
  ["CCCN1C(=O)NC(=O)C(CC)(N2C(=O)c3c(F)c(F)c(F)c(F)c3C2=O)C1=O (stereo not drawn)", "3.93 µM"]
]}

The measured values listed here are drawn from PubChem BioAssay (NCI).
